system: HEK293T cells; assay: Surface expression of CD40L trimerization mutants, transfected HEK293T cells (FACS); format: cell-based, human; conditions: transiently transfected HEK293T cells
Respond with met for % CD40L positive values of 40% and above, not met for values below.

molecule	categoryLabel
OT-002078: construct with CD40L trimerization mutant (protein) MGGSGGGSGGGSGMIETYNQTSPRSAATGLPISMKIFMYLLTVFLITQMIGSALFAVYLHRRLDKIEDERNLHEDFVFMKTIQRCNTGERSLSLLNCEEIKSQFEGFVKDIMLNKEETKKENSFEMQKGDQNPQIAAHVISEASSKTTSVLQWAEKGYYTMSNNLVTLENGKQLTVKRQGLYYIYAQVTFCSNREASSQAPFIASLCLKSPGRFERILLRAANTHSSAKPCGQQSIGLFGVFELQPGASVFVNVTDPSQVSHGTGFTSFGLLKL	met
OT-002079: construct with CD40L trimerization mutant (protein) MGGSGGGSGGGSGMIETYNQTSPRSAATGLPISMKIFMYLLTVFLITQMIGSALFAVYLHRRLDKIEDERNLHEDFVFMKTIQRCNTGERSLSLLNCEEIKSQFEGFVKDIMLNKEETKKENSFEMQKGDQNPQIAAHVISEASSKTTSVLQWAEKGYYTMSNNLVTLENGKQLTVKRQGLYYIYAQVTFCSNREASSQAPFIASLCLKSPGRFERILLRAANTHSSAKPCGQQSIGLHGVFELQPGASVFVNVTDPSQVSHGTGFTSFGLLKL	met
OT-002082: construct with CD40L trimerization mutant (protein) MGGSGGGSGGGSGMIETYNQTSPRSAATGLPISMKIFMYLLTVFLITQMIGSALFAVYLHRRLDKIEDERNLHEDFVFMKTIQRCNTGERSLSLLNCEEIKSQFEGFVKDIMLNKEETKKENSFEMQKGDQNPQIAAGVISEASSKTTSVLQWAEKGYYTMSNNLVTLENGKQLTVKRQGLYYIYAQVTFCSNREASSQAPFIASLCLKSPGRFERILLRAANTHSSAKPCGQQSIHLGFVFELQPGASVFVNVTDPSQVSHGTGFTSFGLLKL	not met
OT-001661: constitutively expressed full length CD40L construct (protein) MHMIETYNQTSPRSAATGLPISMKIFMYLLTVFLITQMIGSALFAVYLHRRLDKIEDERNLHEDFVFMKTIQRCNTGERSLSLLNCEEIKSQFEGFVKDIMLNKEETKKENSFEMQKGDQNPQIAAHVISEASSKTTSVLQWAEKGYYTMSNNLVTLENGKQLTVKRQGLYYIYAQVTFCSNREASSQAPFIASLCLKSPGRFERILLRAANTHSSAKPCGQQSIHLGGVFELQPGASVFVNVTDPSQVSHGTGFTSFGLLKL	met

Next molecule, please.
stdin: Is the recorded value of % CD40L positive equal to or greater than 40% for this molecule? OT-002080: construct with CD40L trimerization mutant (protein) MGGSGGGSGGGSGMIETYNQTSPRSAATGLPISMKIFMYLLTVFLITQMIGSALFAVYLHRRLDKIEDERNLHEDFVFMKTIQRCNTGERSLSLLNCEEIKSQFEGFVKDIMLNKEETKKENSFEMQKGDQNPQIAAHVISEASSKTTSVLQWAEKGYYTMSNNLVTLENGKQLTVKRQGLYYIGAQVTFCSNREASSQAPFIASLCLKSPGRFERILLRAANTHSSAKPCGQQSIHLFGVFELQPGASVFVNVTDPSQVSHGTGFTSFGLLKL
stdout: not met
